tested on: CCRF-CEM; experiment: In vitro inhibitory activity against replication of HIV-2 in human lymphocyte thymidine kinase deficient CEM cells; assay type: functional, cell-based
Quick list: EC50 per entry.
endpoint: EC50 (µM)

[
  {
    "molecule": "Cc1cn(C2CC(N=[N+]=[N-])C(COP(=O)(Oc3ccc([N+](=O)[O-])cc3)Oc3ccc([N+](=O)[O-])cc3)O2)c(=O)[nH]c1=O (centres undefined)",
    "endpoint": "EC50",
    "units_of_measure": "µM",
    "reported_relation": "=",
    "quantitative_result": 50
  },
  {
    "molecule": "Cc1cn(C2CC(N=[N+]=[N-])C(COP(=O)(Oc3cccc([N+](=O)[O-])c3)Oc3cccc([N+](=O)[O-])c3)O2)c(=O)[nH]c1=O (centres undefined)",
    "endpoint": "EC50",
    "units_of_measure": "µM",
    "reported_relation": "=",
    "quantitative_result": 85
  },
  {
    "molecule": "Cc1cn([C@H]2C[C@H](N=[N+]=[N-])[C@@H](CO)O2)c(=O)[nH]c1=O [ZIDOVUDINE]",
    "endpoint": "EC50",
    "units_of_measure": "µM",
    "reported_relation": ">",
    "quantitative_result": 100
  },
  {
    "molecule": "Cc1cn(C2CC(N=[N+]=[N-])C(COP(=O)(Oc3ccccc3[N+](=O)[O-])Oc3ccccc3[N+](=O)[O-])O2)c(=O)[nH]c1=O (centres undefined)",
    "endpoint": "EC50",
    "units_of_measure": "µM",
    "reported_relation": ">",
    "quantitative_result": 100
  }
]

Values compiled from ChEMBL document CHEMBL1150553.
